Measured IC50, listed per entry.
tested on: BEAS-2B; test: Antiproliferation assay; type: cell-based; details: Homo sapiens, 24 h, read-out: IC50 = mean ± SD, BEAS-2B
recorded_metric: IC50

{"compound": "COc1cc([C@@H]2c3cc4c(cc3[C@H](OC(=O)CCCc3ccc(NS(=O)(=O)c5ccc(C(F)(F)F)cc5)cc3)[C@H]3COC(=O)[C@H]23)OCO4)cc(OC)c1OC", "value_reported": "> 100 µM"}
{"compound": "COc1cc([C@@H]2c3cc4c(cc3[C@H](O)[C@H]3COC(=O)[C@H]23)OCO4)cc(OC)c1OC [PPT, Podophyllotoxin, reference compound]", "value_reported": "8.91 µM"}
{"compound": "COc1cc([C@@H]2c3cc4c(cc3[C@H](OC(=O)CCCc3ccc(NS(=O)(=O)c5ccccc5)cc3)[C@H]3COC(=O)[C@H]23)OCO4)cc(OC)c1OC [Compound E1]", "value_reported": "83.6 µM"}
{"compound": "COc1cc([C@@H]2c3cc4c(cc3[C@H](OC(=O)CCCc3ccc(NS(=O)(=O)c5ccc(C)cc5)cc3)[C@H]3COC(=O)[C@H]23)OCO4)cc(OC)c1OC", "value_reported": "79.3 µM"}
{"compound": "COc1cc([C@@H]2c3cc4c(cc3[C@H](OC(=O)CCCc3ccc(NS(=O)(=O)c5ccc(Br)cc5)cc3)[C@H]3COC(=O)[C@H]23)OCO4)cc(OC)c1OC", "value_reported": "> 100 µM"}
{"compound": "COc1cc([C@@H]2c3cc4c(cc3[C@H](OC(=O)CCCc3ccc(NS(=O)(=O)c5cccc(Br)c5)cc3)[C@H]3COC(=O)[C@H]23)OCO4)cc(OC)c1OC", "value_reported": "> 100 µM"}
{"compound": "COc1cc([C@@H]2c3cc4c(cc3[C@H](OC(=O)CCCc3ccc(NS(=O)(=O)c5ccccc5F)cc3)[C@H]3COC(=O)[C@H]23)OCO4)cc(OC)c1OC", "value_reported": "> 100 µM"}
{"compound": "COc1cc([C@@H]2c3cc4c(cc3[C@H](OC(=O)CCCc3ccc(NS(=O)(=O)c5ccccc5[N+](=O)[O-])cc3)[C@H]3COC(=O)[C@H]23)OCO4)cc(OC)c1OC", "value_reported": "> 100 µM"}
{"compound": "COc1cc([C@@H]2c3cc4c(cc3[C@H](OC(=O)CCCc3ccc(NS(=O)(=O)c5cc([N+](=O)[O-])ccc5C)cc3)[C@H]3COC(=O)[C@H]23)OCO4)cc(OC)c1OC", "value_reported": "97.3 µM"}
{"compound": "COc1cc([C@@H]2c3cc4c(cc3[C@H](OC(=O)CCCc3ccc(NS(=O)(=O)c5ccc([N+](=O)[O-])cc5)cc3)[C@H]3COC(=O)[C@H]23)OCO4)cc(OC)c1OC", "value_reported": "> 100 µM"}
{"compound": "COc1cc([C@@H]2c3cc4c(cc3[C@H](OC(=O)CCCc3ccc(NS(=O)(=O)c5c(F)cccc5F)cc3)[C@H]3COC(=O)[C@H]23)OCO4)cc(OC)c1OC", "value_reported": "> 100 µM"}
